EXPERIMENT_DESCRIPTION: High-throughput (direct-to-biology) human liver microsomal stability assay
CONDITION_PARAMETERS: both, human, microsomes, pH 7.4
Listed here: items and their measured half-life at 105 µM.
PROPERTY_LABEL: half-life at 105 µM (min)

>>> reported("C[C@@H](NCCCc1cccc(C(F)(F)F)c1)c1cccc2c1CCCC2 [compound 39]")
33.7
>>> reported("C[C@@H](NCCCc1cccc(C(F)(F)F)c1)c1cccc2ccccc12 [Cinacalcet]")
35.4

---

EXPERIMENT_DESCRIPTION: High-throughput (direct-to-biology) human liver microsomal stability assay
CONDITION_PARAMETERS: both, human, microsomes, pH 7.4
Listed here: items and their measured remaining at 0.5 h, 105 µM.
PROPERTY_LABEL: remaining at 0.5 h, 105 µM (%)

>>> reported("CC(C(=O)O)c1ccc(N2Cc3ccccc3C2=O)cc1 (stereo not drawn)")
99
>>> reported("CCCNC(C)C(=O)Nc1ccccc1C (stereo not drawn)")
75
>>> reported("C[C@@H](NCCCc1cccc(C(F)(F)F)c1)c1cccc2ccccc12")
49
>>> reported("CCN(CC)C(=O)c1cccc(C)c1 [Diethyltoluamide]")
81.7
>>> reported("Nc1c2ccccc2nc2ccccc12")
75.1
>>> reported("COC(=O)N[C@H](C(=O)N[C@@H](Cc1ccccc1)[C@@H](O)CN(Cc1ccc(-c2ccccn2)cc1)NC(=O)[C@@H](NC(=O)OC)C(C)(C)C)C(C)(C)C")
72.9
